Test system: choroidal neovascularization in BN rats
protocol summary: Laser-induced choroidal neovascularization in BN rats (FFA)
Format: in vivo, rat
condition parameters: Day 3 after administration; 200 μg intravitreally once daily for 1 week (Table 53)
Where no end group is shown, it is not given here.
value kind: CNV Incidence rate (%)
I only need the number, in %, no unit after it.

Exercise: Can you look up the measured CNV Incidence rate of mPEG-bALD40k-Arg-Gly-Ala-Asp-Arg-Ala-Gly-Gly-Gly-Gly-Arg-Gly-Asp ({mPEG‑bALD 40 kDa}-RGADRAGGGGRGD) [mPEG-bALD40k-HM-1] for me?
Key: 52.22

Exercise: Can you look up the measured CNV Incidence rate of mPEG-ALD40k-Arg-Gly-Ala-Asp-Arg-Ala-Gly-Gly-Gly-Gly-Arg-Gly-Asp ({mPEG‑ALD 40 kDa}-RGADRAGGGGRGD) [mPEG-ALD40k-HM-1] for me?
Key: 52.41

Exercise: Can you look up the measured CNV Incidence rate of mPEG2-NHS40k-Arg-Gly-Ala-Asp-Arg-Ala-Gly-Gly-Gly-Gly-Arg-Gly-Asp ({mPEG2‑NHS 40 kDa}-RGADRAGGGGRGD) [mPEG2-NHS40k-HM-1] for me?
Key: 51.02

Exercise: Can you look up the measured CNV Incidence rate of mPEG-SC40k-Arg-Gly-Ala-Asp-Arg-Ala-Gly-Gly-Gly-Gly-Arg-Gly-Asp ({mPEG‑SC 40 kDa}-RGADRAGGGGRGD) [mPEG-SC40k-HM-1] for me?
Key: 50.68

###

So I've got a bunch of substances here, and I need their rate of growth inhibition values.
Tested on: Gastric cancer tumor cells
protocol summary: MTT proliferation inhibition, gastric cancer cells
Type: cell-based, human
Set-up: concentration or dose not given beside the values
condition parameters: 48 h
Where no end group is shown, it is not given here.
I only need the number, in %, no unit after it.

Exercise: Please provide the recorded rate of growth inhibition for mPEG-ALD20k-Arg-Gly-Ala-Asp-Arg-Ala-Gly-Gly-Gly-Gly-Arg-Gly-Asp ({mPEG‑ALD 20 kDa}-RGADRAGGGGRGD) [mPEG-ALD20k-HM-1] , tested on Gastric cancer tumor cells.
Key: 75.23

Exercise: Please provide the recorded rate of growth inhibition for mPEG2-NHS20k-Arg-Gly-Ala-Asp-Arg-Ala-Gly-Gly-Gly-Gly-Arg-Gly-Asp ({mPEG2‑NHS 20 kDa}-RGADRAGGGGRGD) [mPEG2-NHS20k-HM-1] , tested on Gastric cancer tumor cells.
Key: 60.90

Exercise: Please provide the recorded rate of growth inhibition for mPEG-bALD20k-Arg-Gly-Ala-Asp-Arg-Ala-Gly-Gly-Gly-Gly-Arg-Gly-Asp ({mPEG‑bALD 20 kDa}-RGADRAGGGGRGD) [mPEG-bALD20k-HM-1] , tested on Gastric cancer tumor cells.
Key: 70.21

Exercise: Please provide the recorded rate of growth inhibition for mPEG-SC10k-Arg-Gly-Ala-Asp-Arg-Ala-Gly-Gly-Gly-Gly-Arg-Gly-Asp ({mPEG‑SC 10 kDa}-RGADRAGGGGRGD) [mPEG-SC10k-HM-1] , tested on Gastric cancer tumor cells.
Key: 56.22

Exercise: Please provide the recorded rate of growth inhibition for mPEG2-NHS5k-Arg-Gly-Ala-Asp-Arg-Ala-Gly-Gly-Gly-Gly-Arg-Gly-Asp ({mPEG2‑NHS 5 kDa}-RGADRAGGGGRGD) [mPEG2-NHS5k-HM-1] , tested on Gastric cancer tumor cells.
Key: 50.31

Exercise: Please provide the recorded rate of growth inhibition for mPEG-SC5k-Arg-Gly-Ala-Asp-Arg-Ala-Gly-Gly-Gly-Gly-Arg-Gly-Asp ({mPEG‑SC 5 kDa}-RGADRAGGGGRGD) [mPEG-SC5k-HM-1] , tested on Gastric cancer tumor cells.
Key: 52.12

Exercise: Please provide the recorded rate of growth inhibition for mPEG-ALD40k-Arg-Gly-Ala-Asp-Arg-Ala-Gly-Gly-Gly-Gly-Arg-Gly-Asp ({mPEG‑ALD 40 kDa}-RGADRAGGGGRGD) [mPEG-ALD40k-HM-1] , tested on Gastric cancer tumor cells.
Key: 70.66

Exercise: Please provide the recorded rate of growth inhibition for mPEG-ALD5k-Arg-Gly-Ala-Asp-Arg-Ala-Gly-Gly-Gly-Gly-Arg-Gly-Asp ({mPEG‑ALD 5 kDa}-RGADRAGGGGRGD) [mPEG-ALD5k-HM-1] , tested on Gastric cancer tumor cells.
Key: 58.77

Exercise: Please provide the recorded rate of growth inhibition for mPEG-bALD5k-Arg-Gly-Ala-Asp-Arg-Ala-Gly-Gly-Gly-Gly-Arg-Gly-Asp ({mPEG‑bALD 5 kDa}-RGADRAGGGGRGD) [mPEG-bALD5k-HM-1] , tested on Gastric cancer tumor cells.
Key: 56.87

Exercise: Please provide the recorded rate of growth inhibition for mPEG-SC20k-Arg-Gly-Ala-Asp-Arg-Ala-Gly-Gly-Gly-Gly-Arg-Gly-Asp ({mPEG‑SC 20 kDa}-RGADRAGGGGRGD) [mPEG-SC20k-HM-1] , tested on Gastric cancer tumor cells.
Key: 66.14

Exercise: Please provide the recorded rate of growth inhibition for mPEG-bALD10k-Arg-Gly-Ala-Asp-Arg-Ala-Gly-Gly-Gly-Gly-Arg-Gly-Asp ({mPEG‑bALD 10 kDa}-RGADRAGGGGRGD) [mPEG-bALD10k-HM-1] , tested on Gastric cancer tumor cells.
Key: 75.01

These data points were gathered from patent US10869931B2.
